Reference source: paper PMC10786891

- tgt: T1, EsCas13d, nuclease-dead (Eubacterium siraeum, UniProt B0MS50, R295A;H300A;R849A;H854A)
- T1 sequence: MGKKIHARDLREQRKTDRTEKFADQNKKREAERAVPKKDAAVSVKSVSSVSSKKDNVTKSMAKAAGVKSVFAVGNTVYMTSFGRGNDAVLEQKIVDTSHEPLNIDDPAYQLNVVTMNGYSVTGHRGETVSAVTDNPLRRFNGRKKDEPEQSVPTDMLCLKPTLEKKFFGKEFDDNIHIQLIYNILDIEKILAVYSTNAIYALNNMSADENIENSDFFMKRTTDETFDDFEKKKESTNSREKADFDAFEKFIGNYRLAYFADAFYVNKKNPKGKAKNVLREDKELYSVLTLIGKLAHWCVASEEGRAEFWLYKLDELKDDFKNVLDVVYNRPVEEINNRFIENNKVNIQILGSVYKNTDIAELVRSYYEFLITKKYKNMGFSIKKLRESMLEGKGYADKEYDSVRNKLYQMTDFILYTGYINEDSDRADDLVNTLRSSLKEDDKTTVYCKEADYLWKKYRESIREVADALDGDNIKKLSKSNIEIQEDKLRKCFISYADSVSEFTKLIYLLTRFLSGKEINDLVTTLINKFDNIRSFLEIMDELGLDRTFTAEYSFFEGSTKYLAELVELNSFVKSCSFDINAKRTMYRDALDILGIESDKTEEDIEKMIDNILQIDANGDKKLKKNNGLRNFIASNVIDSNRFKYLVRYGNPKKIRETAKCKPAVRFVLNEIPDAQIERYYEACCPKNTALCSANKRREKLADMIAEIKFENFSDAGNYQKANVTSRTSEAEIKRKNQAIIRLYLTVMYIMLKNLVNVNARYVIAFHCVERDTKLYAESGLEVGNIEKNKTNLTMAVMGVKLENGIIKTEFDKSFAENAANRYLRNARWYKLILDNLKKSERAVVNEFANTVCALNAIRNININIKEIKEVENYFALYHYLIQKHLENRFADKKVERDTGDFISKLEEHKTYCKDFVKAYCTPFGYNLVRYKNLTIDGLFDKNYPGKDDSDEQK
- test_summary: crRNA (strand 1, pre-loaded); Mg2+; 40 mM Tris-HCl pH 7.5, 150 mM NaCl, 6 mM MgCl2, 1 mM DTT, 0.1% Tween-20, 0.2 mg/ml BSA; 25 C; 10 min per concentration, then washed
- details: tags: His6-TwinStrep-SUMO cleaved; N-terminal SNAP kept (SNAP-Surface 488); label: 3' end held by stalled T7 RNA polymerase

binder	unit_of_measure	Kd
target 1 MT 5'PFS GCU 3'PFS CUU (mixed) RNA 1: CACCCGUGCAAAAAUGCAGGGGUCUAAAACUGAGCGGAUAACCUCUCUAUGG RNA 2: GGGAAUGGAUCCACAUCUACGAAUUCGCUCCAUAGAGAGGUUAUCCGCUCACUUAGAUCGGAAGAGCACACGU	nM	26
target 1 C2G,C7U (mixed) RNA 1: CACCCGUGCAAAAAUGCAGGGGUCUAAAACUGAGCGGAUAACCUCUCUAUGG RNA 2: GGGAAUGGAUCCACAUCUACGAAUUCGUACCAUAGAGAGGUUAUUCGCUGACCGAGAUCGGAAGAGCACACGU	nM	3.82
target 1 insC 3' of 22,insU 3' of 12 (mixed) RNA 1: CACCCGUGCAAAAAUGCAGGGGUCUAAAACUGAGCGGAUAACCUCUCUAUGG RNA 2: GGGAAUGGAUCCACAUCUACGAAUUCGUACCCAUAGAGAGGUUUAUCCGCUCACCGAGAUCGGAAGAGCACACGU	nM	16.8
target 2 MT 5'PFS GAA 3'PFS AUU (mixed) RNA 1: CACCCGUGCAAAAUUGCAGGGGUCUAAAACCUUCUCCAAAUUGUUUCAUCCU RNA 2: GGGAAUGGAUCCACAUCUACGAAUUCGAAAGGAUGAAACAAUUUGGAGAAGAUUAGAUCGGAAGAGCACACGU	nM	7.3
